Assay: cross-inhibition, in situ perfusion: [^3H]-ADMA with 100 μM unlabelled L-arginine
Format: in vivo, mouse
Details: male, Balb/c, mouse, CSF, other: in situ brain perfusion, with 100 µM unlabelled L-arginine, [3H] ADMA + [14C] Sucrose + 100uM Arg, 10 mins, Balb/c ♂, 5ml/min; mean; read-out: uptake into CSF
Experimental: Self-inhibition experiments were also performed. […] Cross-competition experiments were also performed. The percentage change in the RTissue uptake values achieved in the absence or presence of an unlabelled inhibitor can be calculated by means of Eq 4. %change=RTissue−RInhibition/RTissue×100 Eq 4 We define RInhibition as the RTissue uptake in the presence of an inhibitor in the artificial plasma. […]
Structures can show the parent of a compound that is named as a salt.
reported metric: Kp at 10 min, 62.5 nM
Keep the answer to the number alone.

Asked: // Kp at 10 min, 62.5 nM lookup, key: CN(C)C(N)=NCCC[C@H](N)C(=O)O [ADMA, N^G,N^G-dimethylarginine dihydrochloride]
Given back: 0.162

###

Assay: in situ brain/choroid plexus perfusion: CNS uptake of [^3H]-arginine, [^3H]-ADMA and [^14C]-sucrose (multiple-time and single-time uptake analysis)
Conditions: male, BALB/c, mouse, CSF, uptake into CSF, [3H] ADMA + [14C] Sucrose, 30 mins, Balb/c ♂, 5ml/min; mean
Counter-ions that a name gives are not always drawn.
reported metric: Kp at 30 min, 62.5 nM
Keep the answer to the number alone.

Asked: // Kp at 30 min, 62.5 nM lookup, key: CN(C)C(N)=NCCC[C@H](N)C(=O)O [ADMA, N^G,N^G-dimethylarginine dihydrochloride]
Given back: 0.721

###

Assay: in situ brain/choroid plexus perfusion: CNS uptake of [^3H]-arginine, [^3H]-ADMA and [^14C]-sucrose (multiple-time and single-time uptake analysis)
Conditions: male, BALB/c, mouse, hypothalamus, Difference (ADMA minus Sucrose), 2.5 mins, 5ml/min; mean
Structures can show the parent of a compound that is named as a salt.
reported metric: Kp at […]
Keep the answer to the number alone.

Asked: // Kp at […] lookup, key: CN(C)C(N)=NCCC[C@H](N)C(=O)O [ADMA, N^G,N^G-dimethylarginine dihydrochloride]
Given back: 0.0993

###

Assay: in situ brain/choroid plexus perfusion: CNS uptake of [^3H]-arginine, [^3H]-ADMA and [^14C]-sucrose (multiple-time and single-time uptake analysis)
Conditions: male, BALB/c, mouse, thalamus, [3H] ADMA and [14C] Sucrose uptake, 20 mins, 5ml/min; individual mouse
Structures can show the parent of a compound that is named as a salt.
reported metric: Kp at 20 min, 62.5 nM
Keep the answer to the number alone.

Asked: // Kp at 20 min, 62.5 nM lookup, key: CN(C)C(N)=NCCC[C@H](N)C(=O)O [ADMA, N^G,N^G-dimethylarginine dihydrochloride]
Given back: 0.331

###

Experiment: cross-inhibition, in situ perfusion: [^3H]-arginine with 0.5–500 μM unlabelled ADMA
Type: in vivo, mouse
Conditions: male, Balb/c, mouse, thalamus, other: in situ brain perfusion, with unlabelled ADMA 10 µM, Arginine / Sucrose uptake, thalamus, mean, [3H] Arginine + [14C] Sucrose + 10 uM ADMA, 10 mins, Balb/c ♂, 5ml/min; mean
reported metric: Kp at 10 min
Keep the answer to the number alone.

Asked: // Kp at 10 min lookup, key: OC[C@H]1O[C@@](CO)(O[C@H]2O[C@H](CO)[C@@H](O)[C@H](O)[C@H]2O)[C@@H](O)[C@@H]1O [[^14C]-sucrose, reference compound]
Given back: 0.0352

###

Experiment: in situ brain/choroid plexus perfusion: CNS uptake of [^3H]-arginine, [^3H]-ADMA and [^14C]-sucrose (multiple-time and single-time uptake analysis)
Conditions: male, BALB/c, mouse, cerebellum, Difference (ADMA minus Sucrose), 2.5 mins, 5ml/min; mean
Structures can show the parent of a compound that is named as a salt.
reported metric: Kp at […]
Keep the answer to the number alone.

Asked: // Kp at […] lookup, key: CN(C)C(N)=NCCC[C@H](N)C(=O)O [ADMA, N^G,N^G-dimethylarginine dihydrochloride]
Given back: 0.0947

###

Test: in situ brain/choroid plexus perfusion: CNS uptake of [^3H]-arginine, [^3H]-ADMA and [^14C]-sucrose (multiple-time and single-time uptake analysis)
Conditions: male, BALB/c, mouse, in vivo, thalamus: [14C] Sucrose, 30 mins, Balb/c ♂, 5ml/min; mean
reported metric: Kp at 30 min
Keep the answer to the number alone.

Asked: // Kp at 30 min lookup, key: OC[C@H]1O[C@@](CO)(O[C@H]2O[C@H](CO)[C@@H](O)[C@H](O)[C@H]2O)[C@@H](O)[C@@H]1O [[^14C]-sucrose, reference compound]
Given back: 0.0965

###

Test: in situ brain/choroid plexus perfusion: CNS uptake of [^3H]-arginine, [^3H]-ADMA and [^14C]-sucrose (multiple-time and single-time uptake analysis)
Conditions: male, BALB/c, mouse, pons, Difference (ADMA minus Sucrose), 2.5 mins, 5ml/min; mean
Structures can show the parent of a compound that is named as a salt.
reported metric: Kp at […]

Asked: // Kp at […] lookup, key: CN(C)C(N)=NCCC[C@H](N)C(=O)O [ADMA, N^G,N^G-dimethylarginine dihydrochloride]
Given back: 0.0907

###

Assay: capillary depletion analysis after in situ brain perfusion
Type: in vivo, mouse
Conditions: male, BALB/c, mouse, capillary depletion supernatant (brain parenchyma), [3H] ADMA and [14C] Sucrose uptake, supernatant, 20 mins, 5ml/min; mean
Where a name gives a salt, the structure may show the parent alone.
reported metric: Kp at 20 min, 62.5 nM
Keep the answer to the number alone.

Asked: // Kp at 20 min, 62.5 nM lookup, key: CN(C)C(N)=NCCC[C@H](N)C(=O)O [ADMA, N^G,N^G-dimethylarginine dihydrochloride]
Given back: 0.156

###

Tested on: [3H]-ADMA transport across the blood-brain and blood-CSF barriers
Assay: self-inhibition, in situ perfusion: [^3H]-ADMA with 100 μM unlabelled ADMA
Format: in vivo, mouse
Conditions: male, Balb/c, mouse, pellet, other: in situ brain perfusion, with unlabelled ADMA 100 µM, [3H] ADMA + [14C] Sucrose + 100uM un-labelled ADMA, 10 mins, Balb/c ♂, 5ml/min; mean; read-out: uptake, pellet
Counter-ions that a name gives are not always drawn.
reported metric: Kp at 10 min, 62.5 nM
Keep the answer to the number alone.

Asked: // Kp at 10 min, 62.5 nM lookup, key: CN(C)C(N)=NCCC[C@H](N)C(=O)O [ADMA, N^G,N^G-dimethylarginine dihydrochloride]
Given back: 0.0179

###

Test: in situ brain/choroid plexus perfusion: CNS uptake of [^3H]-arginine, [^3H]-ADMA and [^14C]-sucrose (multiple-time and single-time uptake analysis)
Details: male, BALB/c, mouse, hippocampus, Difference (ADMA minus Sucrose), 20 mins, 5ml/min; mean
Where a name gives a salt, the structure may show the parent alone.
reported metric: Kp at 20 min, 62.5 nM
Keep the answer to the number alone.

Asked: // Kp at 20 min, 62.5 nM lookup, key: CN(C)C(N)=NCCC[C@H](N)C(=O)O [ADMA, N^G,N^G-dimethylarginine dihydrochloride]
Given back: 0.254

###

Experiment: in situ brain/choroid plexus perfusion: CNS uptake of [^3H]-arginine, [^3H]-ADMA and [^14C]-sucrose (multiple-time and single-time uptake analysis)
Conditions: male, BALB/c, mouse, CSF, Difference (ADMA minus Sucrose), CONTROL, 10 mins, 5ml/min; mean
Structures can show the parent of a compound that is named as a salt.
reported metric: Kp at 10 min, 62.5 nM
Keep the answer to the number alone.

Asked: // Kp at 10 min, 62.5 nM lookup, key: CN(C)C(N)=NCCC[C@H](N)C(=O)O [ADMA, N^G,N^G-dimethylarginine dihydrochloride]
Given back: 0.267

###

Assay: capillary depletion analysis after in situ brain perfusion
Format: in vivo, mouse
Conditions: male, BALB/c, mouse, whole-brain homogenate (capillary depletion), Difference (ADMA minus Sucrose), homogenate, 20 mins, 5ml/min; mean
Structures can show the parent of a compound that is named as a salt.
reported metric: Kp at 20 min, 62.5 nM
Keep the answer to the number alone.

Asked: // Kp at 20 min, 62.5 nM lookup, key: CN(C)C(N)=NCCC[C@H](N)C(=O)O [ADMA, N^G,N^G-dimethylarginine dihydrochloride]
Given back: 0.208

###

Test: capillary depletion analysis after in situ brain perfusion
Type: in vivo, mouse
Settings: male, BALB/c, mouse, whole-brain homogenate (capillary depletion), [3H] ADMA and [14C] Sucrose uptake, homogenate, 2.5 mins, 5ml/min; mean
Structures can show the parent of a compound that is named as a salt.
reported metric: Kp at […]
Keep the answer to the number alone.

Asked: // Kp at […] lookup, key: CN(C)C(N)=NCCC[C@H](N)C(=O)O [ADMA, N^G,N^G-dimethylarginine dihydrochloride]
Given back: 0.0942

###

Entries annotated with measured Kp at 10 min, 62.5 nM
Test system: [3H]-ADMA transport across the blood-brain and blood-CSF barriers
Assay: cross-inhibition, in situ perfusion: [^3H]-ADMA with 100 μM unlabelled L-arginine
Assay type: in vivo, mouse
Conditions: male, Balb/c, mouse, choroid plexus, other: in situ brain perfusion, with 100 µM unlabelled L-arginine, [3H] ADMA + [14C] Sucrose + 100uM Arg, 10 mins, Balb/c ♂, 5ml/min; mean; read-out: uptake into choroid plexus
Counter-ions that a name gives are not always drawn.
Keep the answer to the number alone.

molecule: OC[C@H]1O[C@@](CO)(O[C@H]2O[C@H](CO)[C@@H](O)[C@H](O)[C@H]2O)[C@@H](O)[C@@H]1O [[^14C]-sucrose, reference compound]
reported metric: Kp at 10 min, 62.5 nM
experimental value: 0.145

Shifting focus to the molecule that follows.
Asked: // Kp at 10 min, 62.5 nM lookup, key: CN(C)C(N)=NCCC[C@H](N)C(=O)O [ADMA, N^G,N^G-dimethylarginine dihydrochloride]
Given back: 0.616
